Target: human LPA1 (Homo sapiens, UniProt Q92633)
Construct: expressed in transfected cells; host or cells: Chinese hamster ovary (CHO) cells
Sequence (Q92633 whole entry): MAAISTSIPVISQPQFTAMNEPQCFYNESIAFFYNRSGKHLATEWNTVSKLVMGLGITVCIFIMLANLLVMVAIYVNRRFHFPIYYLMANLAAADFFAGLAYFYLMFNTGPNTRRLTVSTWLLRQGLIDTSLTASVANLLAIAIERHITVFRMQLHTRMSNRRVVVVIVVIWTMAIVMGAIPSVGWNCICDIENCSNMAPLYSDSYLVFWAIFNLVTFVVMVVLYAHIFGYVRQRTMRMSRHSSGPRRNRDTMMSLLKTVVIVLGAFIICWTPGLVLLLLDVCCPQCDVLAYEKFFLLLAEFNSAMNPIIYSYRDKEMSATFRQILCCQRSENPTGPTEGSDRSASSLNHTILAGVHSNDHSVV
Experiment: LPA1 functional antagonist assay (LPA-induced calcium flux in CHO cells overexpressing human LPA1)
Format: cell-based
Settings: read-out: hLPA1 IC50
Just a reminder that ties go to Not fulfilled: only IC50 strictly below 200 nM counts as Fulfilled.

1. Cc1nc(-c2nnn(C)c2Cn2nnc(NCc3ccccc3)n2)ccc1O[C@H]1CCC[C@H](C(=O)O)C1 [Example 368]    Not fulfilled
2. COC[C@@H](C)Oc1nnn(Cc2c(-c3ccc(O[C@H]4CCC[C@H](C(=O)O)C4)c(C)n3)nnn2C)n1 [Example 403]    Not fulfilled
3. Cc1nc(-c2nnn(C)c2CNc2nnn(-c3ccccc3)n2)ccc1O[C@H]1CCC[C@H](C(=O)O)C1 [Example 389]    Fulfilled
4. CCCCn1nnnc1Cc1c(-c2ccc(O[C@H]3CCC[C@H](C(=O)O)C3)c(C)n2)nnn1C [Example 365]    Not fulfilled
5. CCc1nc(-c2nnn(C)c2Cn2cc(C(C)C)nn2)ccc1O[C@H]1CCC[C@H](C(=O)O)C1 [Example 371]    Not fulfilled
6. CCCCN(CCCC)c1nnn(Cc2c(-c3ccc(O[C@H]4CCC[C@H](C(=O)O)C4)c(C)n3)nnn2C)n1 [Example 363]    Not fulfilled
7. Cc1nc(-c2nnn(C)c2CN(CC2CC2)c2nnn(CC3CC3)n2)ccc1O[C@H]1CCC[C@H](C(=O)O)C1 [Example 377]    Not fulfilled
8. CCCCn1nnc(NCc2c(-c3ccc(O[C@H]4CCC[C@H](C(=O)O)C4)c(C)n3)nnn2C)n1 [Example 382]    Not fulfilled
9. Cc1nc(-c2nnn(C)c2Cc2nnn(CCC3CC3)n2)ccc1O[C@H]1CCC[C@H](C(=O)O)C1 [Example 400]    Fulfilled
10. CCc1nc(-c2nnn(C)c2CNc2nc(C3CC3)ns2)ccc1O[C@H]1CCC[C@H](C(=O)O)C1 [Example 397]    Not fulfilled
11. COCCCOc1nnn(Cc2c(-c3ccc(O[C@H]4CCC[C@H](C(=O)O)C4)c(C)n3)nnn2C)n1 [Example 404]    Not fulfilled
12. CCc1nc(-c2nnn(C)c2CNc2nc(C3CCC3)ns2)ccc1O[C@H]1CCC[C@H](C(=O)O)C1 [Example 396]    Fulfilled
13. Cc1ccccc1-n1nnc(NCc2c(-c3ccc(O[C@H]4CCC[C@H](C(=O)O)C4)c(C)n3)nnn2C)n1 [Example 381]    Not fulfilled
14. Cc1nc(-c2nnn(C)c2Cn2nnc(N(CC3CC3)CC3CC3)n2)ccc1O[C@H]1CCC[C@H](C(=O)O)C1 [Example 358]    Not fulfilled
15. COCCOc1nnn(Cc2c(-c3ccc(O[C@H]4CCC[C@H](C(=O)O)C4)c(C)n3)nnn2C)n1 [Example 407]    Fulfilled
